- tgt: plasminogen
plasminogenolytic activity (PAU/mg) (PAU/mg (single chain)) listing for selected binders.
Please reply with the value in numeric form only.

mt-PA6-D (enzyme, diglycosylated: alternate glycosylation consensus sequence at the amino acids surrounding position 33 (equivalent to amino acid 205 of t-PA) in Kringle 2, and the glycosylation consensus sequence within the Serine Protease domain) SYQGNSDCYFGQGSAYRGTHSLTESGASCLPWNGSMILIGKVYTAQNPSAQALGLGKHNYCRNPDGDAKPWCHVLKNRRLTWEYCDVPSCSTCGLRQYSQPQFRIKGGLFADIASHPWQAAIFAKHRRSPGERFLCGGILISSCWILSAAHCFQERFPPHHLTVILGRTYRVVPGEEEQKFEVEKYIVHKEFDDDTYDNDIALLQLKSDSSRCAQESSVVRTVCLPPADLQLPDWTECELSGYGKHEALSPFYSERLKEAHVRLYPSSRCTSQHLLNRTVTDNMLCAGDTRSGGPQANLHDACQGDSGGPLVCLNDGRMTLVGIISWGLGCGQKDVPGVYTKVTNYLDWIRDNMRP
189

Could you share which plasminogenolytic activity (PAU/mg) (PAU/mg (single chain)) value was measured for mt-PA9 (enzyme, diglycosylated: obligatory glycosylation site located in the first exon of Kringle 1, and the site in the Serine Protease domain) SYQDTRATCYEDQGISYRGTWSTAESGAECTNWNSSALAQKPYSGRRPDAIRLGLGNHNYCRNPDGDAKPWCHVLKNRRLTWEYCDVPSCSTCGLRQYSQPQFRIKGGLFADIASHPWQAAIFAKHRRSPGERFLCGGILISSCWILSAAHCFQERFPPHHLTVILGRTYRVVPGEEEQKFEVEKYIVHKEFDDDTYDNDIALLQLKSDSSRCAQESSVVRTVCLPPADLQLPDWTECELSGYGKHEALSPFYSERLKEAHVRLYPSSRCTSQHLLNRTVTDNMLCAGDTRSGGPQANLHDACQGDSGGPLVCLNDGRMTLVGIISWGLGCGQKDVPGVYTKVTNYLDWIRDNMRP ?
50
